target: NR2F6 (Homo sapiens); construct: expressed in transfected cells; also transient transfection; test: NR2F6 agonist screening, Firefly signal cmpd/DMSO; assay type: cell-based; conditions: Table 14; 10 uM
Sequence (P10588 whole entry): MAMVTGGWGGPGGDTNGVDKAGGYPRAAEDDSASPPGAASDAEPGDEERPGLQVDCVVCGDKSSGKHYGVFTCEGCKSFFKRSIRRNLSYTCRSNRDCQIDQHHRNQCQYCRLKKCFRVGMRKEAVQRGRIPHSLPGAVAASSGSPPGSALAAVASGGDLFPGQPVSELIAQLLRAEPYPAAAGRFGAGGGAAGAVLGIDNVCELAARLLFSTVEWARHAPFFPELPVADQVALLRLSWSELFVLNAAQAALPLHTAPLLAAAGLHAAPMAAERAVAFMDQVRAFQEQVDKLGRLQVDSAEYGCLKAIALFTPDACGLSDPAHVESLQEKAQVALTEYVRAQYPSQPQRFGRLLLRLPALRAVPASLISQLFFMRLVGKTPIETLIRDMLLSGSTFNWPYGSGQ
readout name: Firefly F4, cmpd/DMSO (mean)

Worked set:
- COC(=O)c1ccc2oc(=O)c(S(=O)(=O)c3ccccc3)cc2c1: 1.6
- CCOC(=O)c1cnc2c(C)cc(C)cc2c1N1CCC(CO)CC1: 0.5
- CCOC(=O)c1cnn2c(-c3ccc(Cl)cc3)ccnc12: 0.8

I: COC(=O)c1cnc2c(C)cc(C)cc2c1NCCCN(C)C
II: Cc1cc(C)nc(Sc2nnc(-c3ccc(C)c(S(=O)(=O)N4CCOCC4)c3)c3ccccc23)n1
Query block: Between I and II , whose recorded Firefly F4, cmpd/DMSO (mean) is greater? Output the label that corresponds to your choice.
Result block: II
